molecular target: Cytochrome P450 2D6 (Homo sapiens); test: Cytochrome panel assay with activity outcomes; conditions: recombinant CYP, pro-luciferin dealkylation, luminescence, p450-cyp2d6; series mostly up to 57.1 µM
Out of some 16,000 compounds screened, about 2,600 (16%) were called active. Not shown: some 20% with an inconclusive outcome. The call rests on the fitted dose curve; in most records, active means well fitted curve in the direction sought with a large enough effect; inconclusive means small, poorly fitted or top-dose-only effect, or effect the other way; inactive means no such curve, though single readings can be large or run the other way. These entries were drawn from the full list.
Answer with one of the outcomes given here: label 1 (active), label 0 (inactive)

Please review the entries below; each comes with its answer.
Cn1c(=O)c(-c2cccs2)nc2cncnc21    label 0
O=C(Nn1cc(C(=O)N2CCN(c3ccccc3F)CC2)c2ccccc2c1=O)c1cnccn1    label 0
O=C(NCCN1CCN(C(=O)c2cc3ccccc3oc2=O)CC1)c1cc2ccccc2oc1=O    label 0
CCOC(=O)Nc1ccc2c(c1)N(C(=O)CCN1CCOCC1)c1ccccc1S2    label 0
COCCn1c(=O)c(-c2cc(F)cc(F)c2)nc2cncnc21    label 0

Consider now this further molecule.
Tell me the assay call for `C=CCn1c(=O)c2c(nc(-c3ccc(S(=O)(=O)O)cc3)n2C)n(C)c1=O` please.
label 0

----------
target: Cytochrome P450 2D6 (Homo sapiens) (UniProt P10635); experiment: Cytochrome panel assay with activity outcomes; settings: recombinant CYP, pro-luciferin dealkylation, luminescence, p450-cyp2d6; series mostly up to 57.1 µM
Sequence (P10635 whole entry, looked up): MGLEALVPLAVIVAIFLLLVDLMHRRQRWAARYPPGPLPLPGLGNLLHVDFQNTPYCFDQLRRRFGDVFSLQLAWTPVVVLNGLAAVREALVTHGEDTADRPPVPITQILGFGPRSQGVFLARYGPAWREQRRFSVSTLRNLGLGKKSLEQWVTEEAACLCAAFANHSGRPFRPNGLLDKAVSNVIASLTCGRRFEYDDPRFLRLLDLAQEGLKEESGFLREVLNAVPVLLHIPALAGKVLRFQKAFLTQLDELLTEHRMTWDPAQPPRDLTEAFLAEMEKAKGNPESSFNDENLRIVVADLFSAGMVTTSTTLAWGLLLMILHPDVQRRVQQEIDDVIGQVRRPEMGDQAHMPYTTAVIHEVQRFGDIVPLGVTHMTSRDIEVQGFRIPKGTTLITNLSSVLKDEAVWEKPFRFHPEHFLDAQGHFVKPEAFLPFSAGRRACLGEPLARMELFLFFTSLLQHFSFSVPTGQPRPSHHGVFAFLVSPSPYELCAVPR
The campaign covered roughly 16,000 compounds. About 2,600 (16%) were called active. Roughly 20% stayed inconclusive and do not appear here. These entries were drawn from the full list.
Reported endpoint: outcome

Consider the worked cases shown below.
COc1ccc(NC(=O)N2CCC3(CC2)CCN(S(C)(=O)=O)CC3)cc1    inactive
Nc1ncnc(N(c2ccccc2)C2CCCCC2)c1[N+](=O)[O-]    inactive
C/C=C\C[C@@H](C)[C@@H](O)[C@H]1C(=O)N[C@@H](CC)C(=O)N(C)CC(=O)N(C)[C@@H](CC(C)C)C(=O)N[C@@H](C(C)C)C(=O)N(C)[C@@H](CC(C)C)C(=O)N[C@@H](C)C(=O)N[C@H](C)C(=O)N(C)[C@@H](CC(C)C)C(=O)N(C)[C@@H](CC(C)C)C(=O)N(C)[C@@H](C(C)C)C(=O)N1C    inactive
COC(=O)/C=C\c1cc(O)ccc1O    inactive
O=C(COC(=O)c1cccc(S(=O)(=O)N2CCOCC2)c1)Nc1nc(-c2ccccc2Cl)cs1    inactive

# value lookup — system Cytochrome P450 2D6 (Homo sapiens) (UniProt P10635), readout outcome, item `CC1(C)Oc2cc(N)c([N+](=O)[O-])cc2O1`
inactive

# value lookup — system Cytochrome P450 2D6 (Homo sapiens) (UniProt P10635), readout outcome, item `O=C(NNC(=O)c1cccnc1)Nc1cccc2ccccc12`
inactive

# value lookup — system Cytochrome P450 2D6 (Homo sapiens) (UniProt P10635), readout outcome, item CCOc1cc(C2CC(=O)c3c(ccc4ccccc34)N2)ccc1O (stereo not drawn)
inactive

----------
target: Cytochrome P450 2D6 (Homo sapiens); experiment: Cytochrome panel assay with activity outcomes; settings: recombinant CYP, pro-luciferin dealkylation, luminescence, p450-cyp2d6; series mostly up to 57.1 µM
The whole screen tested about 16,000 compounds, of which about 2,600 (16%) were called active. Not shown: some 20% with an inconclusive outcome. Calls come from the whole dose curve; as a rule, active = well fitted curve in the direction sought with a large enough effect; inconclusive = small, poorly fitted or top-dose-only effect, or effect the other way; inactive = no such curve, though single readings can be large or run the other way. A selection follows.
Answer with one of the outcomes given here: label 1 for active, label 0 for inactive

Please review the entries below; each comes with its answer.
COC(=O)c1c(C)nc2ccccc2c1C(=O)O    label 0
CCCCN(CC)Cc1ccc(CNC(=O)Nc2ccc(OC)cc2OC)o1    label 1
O=C(c1ccc2c(=O)n(CC3CCCO3)c(=S)[nH]c2c1)N1CCN(c2ccccc2)CC1 (stereo unspecified)    label 0
COc1ccc(C(O)P(=O)(OC(C)C)OC(C)C)cc1OC (stereo unspecified)    label 0
CC(C)C(=O)NCCn1ccc2ccccc21    label 0

Tell me the assay call for `O=C(Cn1cnc([N+](=O)[O-])c1)NCc1ccc(F)cc1` please.
label 0

----------
target: Cytochrome P450 2D6 (Homo sapiens) (UniProt P10635); assay: Cytochrome panel assay with activity outcomes; conditions: recombinant CYP, pro-luciferin dealkylation, luminescence, p450-cyp2d6; series mostly up to 57.1 µM
In all, about 16,000 compounds went through this assay and about 2,600 (16%) were called active. Not shown: some 20% with an inconclusive outcome. Calls come from the whole dose curve; as a rule, active = well fitted curve in the direction sought with a large enough effect; inconclusive = small, poorly fitted or top-dose-only effect, or effect the other way; inactive = no such curve, though single readings can be large or run the other way. Only a sample is shown.
Answer with one of the outcomes given here: YES = active, NO = inactive

Please review the entries below; each comes with its answer.
CCn1c(SCC(=O)c2ccccc2)nnc1-c1cccs1    YES
OCCN1CCN(CCOc2cccc(Cl)c2)CC1    YES
C[C@@H]1C[C@H]2[C@H]3C[C@@H](F)C4=CC(=O)C=C[C@]4(C)[C@@]3(Cl)[C@@H](O)C[C@@]2(C)[C@@H]1C(=O)COC(=O)C(C)(C)C    NO
Cc1ccc(S(=O)(=O)NC(=O)c2cccn2C)cc1    NO
Cc1ccc(NC(=S)NC(=O)c2c(-c3ccccc3Cl)noc2C)cc1    NO
COc1ccc2c(c1)nc(SCC(=O)c1ccc(Br)s1)n2C    YES
C/C(CCC(=O)OC[C@@H]1O[C@H](C#Cc2ccccc2)C=C[C@@H]1Oc1ccc(C)cc1)=N/O[C@@H](C)CN1CCCc2nc(C)c(C)cc21    YES
Cc1ccc2nc(Nc3nc(-c4ccccc4)cc(=O)[nH]3)nc(C)c2c1    NO
COc1ccc(O[C@H]2C=C[C@@H](c3ccccc3)O[C@@H]2CO/N=C(\C)CCN2CCCc3nc(C)c(C)cc32)cc1    YES
COCCn1c(=O)c(-c2cccs2)nc2cnc(N3CCNCC3)nc21    NO

Tell me the assay call for CCn1c(SCC(=O)NC2CCCc3ccccc32)nnc1-c1cccs1 (stereo not given) please.
NO

Tell me the assay call for `NC[C@@H]1O[C@H](C23CC4CC(CC(C4)C2)C3)Cc2c1ccc(O)c2O` please.
NO

Tell me the assay call for `Cc1ccc2nc(SCC(=O)Nc3nnc(SCC(N)=O)s3)[nH]c2c1` please.
NO

Tell me the assay call for `COc1ccc(NC(=O)N2CCCC3(CCN(C(=O)c4cccn4C)CC3)C2)cc1` please.
NO

Tell me the assay call for `CC(C)n1c(O)c(/C=C2\C=Nc3ccccc32)sc1=Nc1ccccc1` please.
NO

----------
Parameter: activity, negative = inhibition. Scope: all listed entries.
target: Cytochrome P450 2D6 (Homo sapiens) (UniProt P10635); test: Cytochrome panel assay with activity outcomes; conditions: recombinant CYP, pro-luciferin dealkylation, luminescence, p450-cyp2d6; series mostly up to 57.1 µM; on activity, negative = inhibition: on the % scale 0 is the no-effect control and ±100 the full control effect
The campaign covered roughly 16,000 compounds. About 2,600 (16%) were called active. Roughly 20% stayed inconclusive and do not appear here. Not all results are given here.

Consider the worked cases shown below.
N[C@@H](Cc1c[nH]c2ccc([N+](=O)[O-])cc12)C(=O)O    4.93% [at 11.4 µM] (inactive)
COc1nc(Cl)nc(Cl)c1Cl (tested in a mixture with another compound)    10.4% [at 11.4 µM] (inactive)
O=P(O)(O)O[C@@H]1O[C@H](CO)[C@@H](O)[C@H](O)[C@@H]1O    9.85% [at 11.4 µM] (inactive)
CS(=O)(=O)c1ccc(/C=N\NC(N)=S)cc1    9.53% [at 11.4 µM] (inactive)
COC(=O)c1ccc(CCc2cc(O)ccc2O)cc1    7.07% [at 11.4 µM] (inactive)

GET /values?readout=activity, negative = inhibition&item= `CO[C@@H]1COC(=O)[C@@H](CCSC)NC(=O)C/C=C\[C@@H](C)COC(=O)CCC[C@H]1C`
6.34% [at 11.4 µM] (inactive)

----------
Molecular target: Cytochrome P450 2D6 (Homo sapiens)
Assay: Cytochrome panel assay with activity outcomes
Conditions: recombinant CYP, pro-luciferin dealkylation, luminescence, p450-cyp2d6; series mostly up to 57.1 µM
Procedure: The P450 gene superfamily is involved in the metabolism and clearance of xenobiotics. This assay used various human CYP P450 isozymes to measure the dealkylation of various pro-luciferin substrates to luciferin. The luciferin is then measured by luminescence after the addition of a luciferase detection reagent. […] Inhibitors and some substrates limit the production of luciferin, and decrease measured luminescence. […] 8, Detection, 1 sec, ViewLux luminescent read […]
Out of some 16,000 compounds screened, about 2,600 (16%) were called active. Roughly 20% stayed inconclusive and do not appear here. Calls come from the whole dose curve; as a rule, active = well fitted curve in the direction sought with a large enough effect; inconclusive = small, poorly fitted or top-dose-only effect, or effect the other way; inactive = no such curve, though single readings can be large or run the other way. Not all results are given here.
Answer with one of the outcomes given here: 1.0 = active, 0.0 = inactive

Please review the entries below; each comes with its answer.
COCCNC(=O)C1CCN(S(=O)(=O)N2CCC3(CC2)OCCO3)CC1    0.0
O=C(NCc1ccccc1Cl)C1CCN(S(=O)(=O)N2CCC3(CC2)OCCO3)CC1    0.0
CCS(=O)(=O)N1CCC(C(=O)NCc2cccnc2)CC1    0.0
CCOc1ccc(N(C(C)C(=O)N/N=C(\C)c2cccc(NC(=O)c3ccccc3)c2)S(C)(=O)=O)cc1 (stereo unspecified)    0.0
Cc1sc(=NC(=O)c2ccco2)n(C)c1-c1ccccc1    0.0

Consider now this further molecule.
Tell me the assay call for `N#Cc1c2c(c(-n3cnc4ccccc43)n3c1nc1ccccc13)CCC2` please.
0.0
